Target: Induced myeloid leukemia cell differentiation protein Mcl-1 (Homo sapiens)
Assay: Mcl-1/Noxa binding inhibitor potency, dose response, biochemical, TR-FRET (AID 1417)
Conditions: Mcl-1/Noxa peptide interaction, cell-free TR-FRET (terbium/rhodamine), 2 h; measured here: absolute IC50
pIC50: −log10 of the molar value.
VALUE_KIND: pIC50

# count of solved cases: 4
O=C(O)C1Nc2c(O)cc(Cl)c([N+](=O)[O-])c2C2C=CCC12 (stereo not given); > 6.40
O=C(O)c1ccccc1/C=N/NC(=O)c1cc(-c2ccco2)nc2ccccc12; > 6.40
CCN(CC)c1ccc(NC(=O)CCNC(=O)c2ccco2)cc1; < 4.27
O=c1oc2c(O)c(O)cc3c(=O)oc4c(O)c(O)cc1c4c23; > 6.40

What pIC50 value was documented for this compound, `O=C1CSC(=S)N1/N=C/c1ccc(O)c(O)c1O` ?
> 6.40

What pIC50 value was documented for this compound, `CN1CCC(N(C)c2nc(-c3ccc([N+](=O)[O-])cc3)nc3ccccc23)CC1` ?
> 6.40

What pIC50 value was documented for this compound, CCOC(=O)c1c(C)oc2c1c(C(c1cccnc1)N1CCOCC1)c(O)c1ccccc12 (stereo not given) ?
> 6.40

What pIC50 value was documented for this compound, `COc1cc(NCCC(=O)c2cccs2)c(OC)cc1Cl` ?
< 4.27

What pIC50 value was documented for this compound, CC(=O)N1CCc2cc(S(=O)(=O)NC(Cc3ccccc3)C(=O)NC3CCCCCC3)ccc21 (stereo not given) ?
< 4.27

What pIC50 value was documented for this compound, `O=C(O)c1ccc(NC2=C/C(=N/S(=O)(=O)c3ccccc3)c3ccccc3C2=O)cc1` ?
> 6.40

What pIC50 value was documented for this compound, `COc1ccc(Cc2nnc(NC(=O)Cc3cccs3)s2)cc1` ?
> 6.40

What pIC50 value was documented for this compound, `Cc1nc(S/C(=C\c2ccc(-c3ccc(C(=O)O)c(Cl)c3)o2)C(=O)O)n[nH]1` ?
> 6.40

What pIC50 value was documented for this compound, CC(C)CC1NC(=O)N(CC(=O)N2c3ccccc3NC(=O)C2(C)C)C1=O (stereo not given) ?
< 4.27

What pIC50 value was documented for this compound, CCCCc1[nH]nc2c1C1(C(=O)N(CC)c3ccccc31)C(C#N)=C(N)O2 (stereo not given) ?
< 4.27

What pIC50 value was documented for this compound, `COc1ccc(NC(=O)c2ccccc2N(Cc2ccccc2)S(C)(=O)=O)cc1` ?
< 4.27

What pIC50 value was documented for this compound, CN(C)c1ccc(C(CNC(=O)c2ccc(C#N)cc2)c2c[nH]c3ccccc23)cc1 (stereo not given) ?
< 4.27

What pIC50 value was documented for this compound, CCOC(=O)c1cc(C(O)(C(=O)OC)C(F)(F)F)c(/N=C/N(C)C)o1 (stereo not given) ?
< 4.27

What pIC50 value was documented for this compound, `FC(F)(F)C1=CC(c2ccccc2)=NCCN1` ?
< 4.27

What pIC50 value was documented for this compound, `O=[N+]([O-])c1c(NCCO)cc(Sc2nc3ccccc3s2)c2nonc12` ?
< 4.27

What pIC50 value was documented for this compound, `O=C(N/N=C/c1ccc(O)cc1)c1cccc(N/N=C/c2ccc(O)cc2)c1` ?
5.69

What pIC50 value was documented for this compound, `O=C(O)c1cc(N2N=C(C(F)(F)F)/C(=C/C=C/c3ccco3)C2=O)ccc1Cl` ?
> 6.40

What pIC50 value was documented for this compound, `COc1ccc(CCNC(=O)COC(=O)Cc2cccc3ccccc23)cc1` ?
< 4.27

What pIC50 value was documented for this compound, `COc1cc(/C=C(\C#N)c2nc3ccc(C)cc3[nH]2)cc([N+](=O)[O-])c1O` ?
5.46

What pIC50 value was documented for this compound, `O=C(O)c1ccc(N/N=C/c2ccc(-c3cc(Cl)ccc3Cl)o2)cc1` ?
5.74

What pIC50 value was documented for this compound, `CCNc1nc(NCC)nc(C(=O)NN)n1` ?
> 6.40
